Sourced from PubChem BioAssay (Tox21)

- assay: A CellTox Green Cytotoxicity Assay to monitor cytotoxicity in HEK293 cells - 24 hour (AID 1224875); note: nearly all actives have a fitted effect of over 45% in size
- test.context: CellTox Green fluorescence; series mostly up to 76.8 µM
Results filed as inconclusive are left out. Calls of active or inactive are those of the source. Calls come from the whole dose curve; as a rule, active = well fitted activation curve with a large enough effect in the repeat runs; inconclusive = weak or mixed curves; inactive = flat fitted curve, though single readings scatter.
Outcomes: true (active), false (inactive)

molecule	assigned.class
Oc1ccc(Cl)c2cccnc12	false
C[C@@H]1CN(CCCn2c3ccccc3c3ccccc32)C[C@H](C)N1	true
O=C1c2ccccc2C(=O)N1CCc1noc(-c2ccc(CN3CCCCCC3)s2)n1	false
C=CCc1ccccc1OCC(O)CNC(C)C (stereo not given)	false
O=C(/C=C/c1ccccc1)OCCc1ccccc1	false
CC(C)C=O	false
CC1(C)O[C@@H]2C[C@H]3[C@@H]4C[C@H](F)C5=CC(=O)C=C[C@]5(C)[C@H]4[C@@H](O)C[C@]3(C)[C@]2(C(=O)CO)O1	false
OCCOCC#CCOCCO	false
CC[C@]1(O)C[C@H]2CN(CCc3c([nH]c4ccccc34)[C@@](C(=O)OC)(c3cc4c(cc3OC)N(C=O)[C@H]3[C@@](O)(C(=O)OC)[C@H](OC(C)=O)[C@]5(CC)C=CCN6CC[C@]43[C@@H]65)C2)C1	false
CC(C)=CCC1C(=O)N(c2ccccc2)N(c2ccccc2)C1=O	false
